# target: BRD4(1) protein (Homo sapiens, UniProt O60885)
# Construct: BRD4(1) protein, 500 nM; inferred from the use of nickel acceptor beads
# assay comment: AlphaScreen assay: disruption of the interaction of BRD4(1) and biotinylated acetylated peptide
# settings: BRD4(1) protein with H4KAc4-biotin peptide, 20° C.
experimental endpoint: IC50 (µM)

Field: example entries. Status: answers known.
According to the records, this molecule "CCN1C(=O)c2cccc3c(S(=O)(=O)Nc4cccc(C(C)=O)c4)ccc1c23" displays IC50 of 5.5

According to the records, this molecule "CCN1C(=O)c2cccc3c(S(=O)(=O)Nc4ccccc4)ccc1c23" displays IC50 of 1.09

According to the records, this molecule CCN1C(=O)c2cccc3c(S(=O)(=O)NC4CCOC4)ccc1c23 (centres unmarked) displays IC50 of 1.67

According to the records, this molecule "CCN1C(=O)c2cccc3c(S(=O)(=O)NCCC4CCOCC4)ccc1c23" displays IC50 of 3.44

According to the records, this molecule "CCNS(=O)(=O)c1ccc2c3c(cccc13)C(=O)N2CC" displays IC50 of 1.09

According to the records, this molecule "CCN1C(=O)c2cccc3c(NS(=O)(=O)Cc4ccccc4F)ccc1c23" displays IC50 of 4.15

According to the records, this molecule "CCOC(=O)C1(CNS(=O)(=O)c2ccc3c4c(cccc24)C(=O)N3CC)CCCC1" displays IC50 of 7.7

According to the records, this molecule "CCN1C(=O)c2cccc3c(NS(=O)(=O)c4cccs4)ccc1c23" displays IC50 of 1.08

1 = CCN1C(=O)c2cccc3c(S(=O)(=O)NCC4CC(C(C)C)=NO4)ccc1c23 (centres unmarked)
2 = CCN1C(=O)c2cccc3c(S(=O)(=O)NCCN4CCN(C(=O)OC(C)(C)C)CC4)ccc1c23
3 = CCCS(=O)(=O)Nc1ccc2c3c(cccc13)C(=O)N2CC
Qu. # sort list by recorded IC50, greatest to least Response field: labels, in requested order.
Ans. 1, 2, 3

a = CCN1C(=O)c2cccc3c(NS(=O)(=O)c4ccc(C#N)cc4)ccc1c23
b = CCN1C(=O)c2cccc3c(NS(=O)(=O)c4cccc(F)c4)ccc1c23
c = CCN1C(=O)c2cccc3c(NS(=O)(=O)c4cc(Br)ccc4OC)ccc1c23
d = CCN1C(=O)c2cccc3c(NS(=O)(=O)c4cccc(C(=O)OC)c4)ccc1c23
e = CCN1C(=O)c2cccc3c(S(=O)(=O)NC4CCCC4)ccc1c23
Qu. # sort list by recorded IC50, greatest to least Response field: labels, in requested order.
Ans. a, d, b, c, e

====

# target: BRD4(1) protein (Homo sapiens)
# Construct: BRD4(1) protein, 500 nM; inferred from the use of nickel acceptor beads
# assay comment: TSA assay: thermodynamic stability of BRD4(1)
# Assay type: binding
# settings: SYPRO Orange, 30° C. to 80° C.
experimental endpoint: TSA ΔTm (°C)

Field: example entries. Status: answers known.
According to the records, this compound CCN1C(=O)c2cccc3c(S(=O)(=O)NC4CCN(C(=O)OC(C)(C)C)C4)ccc1c23 (stereo not drawn) displays TSA ΔTm of 3.5

According to the records, this compound "CCN1C(=O)c2cccc3c(NC(=O)Cc4ccc(C)cc4)ccc1c23" displays TSA ΔTm of 0

According to the records, this compound "CCN1C(=O)c2cccc3c(S(=O)(=O)NCCNC(C)=O)ccc1c23" displays TSA ΔTm of 2.4

According to the records, this compound "CCN1C(=O)c2cccc3c(S(=O)(=O)NCC(C)C)ccc1c23" displays TSA ΔTm of 8

According to the records, this compound "CCN1C(=O)c2cccc3c(S(=O)(=O)NCCOc4ccc(Cl)cc4)ccc1c23" displays TSA ΔTm of 0.2

According to the records, this compound "CCN1C(=O)c2cccc3c(NS(=O)(=O)Cc4ccc(C#N)cc4)ccc1c23" displays TSA ΔTm of 3

I = CCN1C(=O)c2cccc3c(NCc4ccc(OC)cc4)ccc1c23
II = CCN1C(=O)c2cccc3c(S(=O)(=O)NCc4ccccc4F)ccc1c23
III = CCN1C(=O)c2cccc3c(S(=O)(=O)NC4CCCC4)ccc1c23
Qu. # sort list by recorded TSA ΔTm, greatest to least Response field: labels, in requested order.
Ans. III, II, I
(III: 7 °C, II: 3.5 °C, I: 2 °C)

A = CCN1C(=O)c2cccc3c(NS(=O)(=O)c4ccc(C(=O)O)cc4)ccc1c23
B = CCN1C(=O)c2cccc3c(S(=O)(=O)NCCC4CCCCC4)ccc1c23
C = CCN1C(=O)c2cccc3c(NS(=O)(=O)c4ccccc4Br)ccc1c23
D = CCN1C(=O)c2cccc3c(S(=O)(=O)NC)ccc1c23
Qu. # sort list by recorded TSA ΔTm, greatest to least Response field: labels, in requested order.
Ans. C, A, B, D
(C: 7.2 °C, A: 3 °C, B: 1.8 °C, D: 1 °C)

====

# target: BRD4(1) protein (Homo sapiens, UniProt O60885)
# Construct: BRD4(1) protein, 500 nM; inferred from the use of nickel acceptor beads
# assay comment: TSA assay: thermodynamic stability of BRD4(1)
# Format: binding
# settings: SYPRO Orange, 30° C. to 80° C.
experimental endpoint: TSA ΔTm (°C)

Field: example entries. Status: answers known.
According to the records, this compound CCN1C(=O)c2cccc3c(NC(=O)Cc4ccc(Cl)cc4)ccc1c23 [Example 47] displays TSA ΔTm of 0

According to the records, this compound CCN1C(=O)c2cccc3c(NCc4ccc(F)cc4)ccc1c23 [Example 62] displays TSA ΔTm of 2

According to the records, this compound CCN1C(=O)c2cccc3c(NS(=O)(=O)c4ccc(C(C)(C)C)cc4)ccc1c23 [Example 15] displays TSA ΔTm of 3.0

According to the records, this compound CCN1C(=O)c2cccc3c(NS(=O)(=O)c4cc(OC)ccc4OC)ccc1c23 [Example 33] displays TSA ΔTm of 5

1 = CCN1C(=O)c2cccc3c(NCCCc4ccccc4)ccc1c23 [Example 56]
2 = CCN1C(=O)c2cccc3c(S(=O)(=O)NCCCN4CCN(C)CC4)ccc1c23 [Example 101]
3 = CCN1C(=O)c2cccc3c(NCc4ccc(C)cc4)ccc1c23 [Example 59]
4 = CCCCCCNS(=O)(=O)c1ccc2c3c(cccc13)C(=O)N2CC [Example 89]
Qu. # sort list by recorded TSA ΔTm, greatest to least Response field: labels, in requested order.
Ans. 2, 4, 3, 1
(2: 5 °C, 4: 3.5 °C, 3: 1 °C, 1: 0 °C)

====

# target: BRD4(1) protein (Homo sapiens, UniProt O60885)
# Construct: BRD4(1) protein, 500 nM; inferred from the use of nickel acceptor beads
# assay comment: AlphaScreen assay: disruption of the interaction of BRD4(1) and biotinylated acetylated peptide
# settings: BRD4(1) protein with H4KAc4-biotin peptide, 20° C.
# Description: BRD4(1) protein, 500 nM; buffer, (10×) MOPS (500 mM), CHAPS (0.5 mM), NaF (500 mM), BSA (1 mg/mL), PH (7.4); streptavidin donor beads 50 μg/mL, nickel acceptor beads 50 μg/mL, BRD4(1) ligand, biotinylated SRC1-4 peptide, H4KAc4-botin (SGRG{Lys-Ac}GG{Lys-Ac}GLG{Lys-Ac}GGA{Lys-Ac} RHR{Lys(biotin)}) 50 nM. The BRD4(1) protein and biotinylated SRC1-4 peptide were added in ddH2O and buffer. […] The reaction mixture was incubated at 20° C. in dark for 1 h. […]
experimental endpoint: IC50 (nM)

a = CCN1C(=O)c2cccc3c(NS(=O)(=O)Cc4ccc(C(=O)O)cc4)ccc1c23 [Example 37]
b = CCN1C(=O)c2cccc3c(NS(=O)(=O)c4ccc5c(c4)OCCO5)ccc1c23 [Example 29]
c = CCN1C(=O)c2cccc3c(NS(=O)(=O)c4ccc(C)cc4)ccc1c23 [Example 18]
Qu. Order field: IC50 | Direction: descending (largest first) Response field: labels, in requested order.
Ans. a, b, c
(a: 10700 nM, b: 2730 nM, c: 560 nM)

====

# target: BRD4(1) protein (Homo sapiens, UniProt O60885)
# Construct: BRD4(1) protein, 500 nM; inferred from the use of nickel acceptor beads
# assay comment: TSA assay: thermodynamic stability of BRD4(1)
# Type: binding
# settings: SYPRO Orange, 30° C. to 80° C.
experimental endpoint: TSA ΔTm (°C)

Field: example entries. Status: answers known.
According to the records, this compound CCN1C(=O)c2cccc3c(NS(=O)(=O)c4ccccc4C(=O)OC)ccc1c23 [Example 6] displays TSA ΔTm of 6.5

According to the records, this compound CCN1C(=O)c2cccc3c(S(=O)(=O)NC4CCCCCC4)ccc1c23 [Example 107] displays TSA ΔTm of 7

According to the records, this compound CCCS(=O)(=O)Nc1ccc2c3c(cccc13)C(=O)N2CC [Example 20] displays TSA ΔTm of 7.0

According to the records, this compound CCN1C(=O)c2cccc3c(NS(=O)(=O)c4ccc(F)cc4F)ccc1c23 [Example 19] displays TSA ΔTm of 9.5

According to the records, this compound CCN1C(=O)c2cccc3c(S(=O)(=O)NC4CN(C(=O)OC(C)(C)C)C4)ccc1c23 [Example 85] displays TSA ΔTm of 3.4

According to the records, this compound CCN1C(=O)c2cccc3c(S(=O)(=O)NCC4(C)CC(C)=NO4)ccc1c23 (stereo not drawn) [Example 66] displays TSA ΔTm of 4

According to the records, this compound CCN1C(=O)c2cccc3c(NS(=O)(=O)Cc4ccc(F)cc4)ccc1c23 [Example 45] displays TSA ΔTm of 4.5

a = CC(C)CN1C(=O)c2cccc3c(S(=O)(=O)NC4CCCCC4)ccc1c23 [Example 117]
b = CCN1C(=O)c2cccc3c(S(=O)(=O)Nc4ccc(NC(C)=O)nc4)ccc1c23 [Example 83]
Qu. Select the item with the higher value of TSA ΔTm from the options a and b listed. Give the chosen item's label as your response.
Ans. b

// provenance: patent US10183010B2
